measurement target: STAT3 (Homo sapiens, UniProt P40763)
Construct: plasmid pSTAT3-TA-luc), which contains a stably operating STAT3 promoter; endogenous in cells
Sequence (P40763 whole entry): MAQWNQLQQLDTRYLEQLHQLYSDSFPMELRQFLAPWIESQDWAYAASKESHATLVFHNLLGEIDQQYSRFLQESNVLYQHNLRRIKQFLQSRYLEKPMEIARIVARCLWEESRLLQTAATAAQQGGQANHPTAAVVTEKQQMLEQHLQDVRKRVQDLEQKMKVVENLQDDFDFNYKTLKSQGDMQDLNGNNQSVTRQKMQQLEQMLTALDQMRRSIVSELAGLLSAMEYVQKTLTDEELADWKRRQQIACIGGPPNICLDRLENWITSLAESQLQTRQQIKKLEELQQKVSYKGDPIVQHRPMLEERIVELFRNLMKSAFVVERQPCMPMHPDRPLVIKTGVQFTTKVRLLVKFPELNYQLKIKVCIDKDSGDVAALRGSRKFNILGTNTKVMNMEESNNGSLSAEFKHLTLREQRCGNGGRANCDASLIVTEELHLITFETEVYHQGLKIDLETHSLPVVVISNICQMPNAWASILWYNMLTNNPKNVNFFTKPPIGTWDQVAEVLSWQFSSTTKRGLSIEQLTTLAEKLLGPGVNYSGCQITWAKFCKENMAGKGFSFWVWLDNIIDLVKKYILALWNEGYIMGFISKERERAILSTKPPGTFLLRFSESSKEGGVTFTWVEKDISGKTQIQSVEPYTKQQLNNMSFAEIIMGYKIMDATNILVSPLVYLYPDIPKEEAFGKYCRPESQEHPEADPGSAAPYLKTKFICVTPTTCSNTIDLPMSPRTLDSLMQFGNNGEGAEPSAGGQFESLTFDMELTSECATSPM
assay name: STAT3 reporter gene assay (luciferase), LNCaP stable cell line (pSTAT3-TA-luc), IL-6 stimulation
Type: cell-based
The entries below come with measured IC50 values attached.
Hi! Could you send only the number? It should be in µM, unit omitted.

Example entries begin here.
compound	IC50, µM
CN(c1ccc2cc(C(=O)Nc3cccc(-c4ccccc4C(F)(F)F)c3)[nH]c2c1)S(C)(=O)=O [Example 346]	0.2
CS(=O)(=O)Nc1ccc2sc(C(=O)Nc3cc(Cl)cc(Oc4ccc(F)cc4F)c3)cc2c1 [Example 444]	0.083
CS(=O)(=O)Nc1ccc2cc(C(=O)Nc3cccc(C(F)(F)c4cccc(C#N)c4)c3)[nH]c2c1 [Example 390]	3.7

Write down the reported IC50 of CC(C)Oc1cc(OC(F)(F)F)cc(C(C)(C)c2cc(Cl)cc(NC(=O)c3cc4cc(NS(C)(=O)=O)ncc4s3)c2)c1 [Example 71] , test system: STAT3 (Homo sapiens, UniProt P40763).
0.009

----------
measurement target: STAT3 (Homo sapiens)
Construct: plasmid pSTAT3-TA-luc), which contains a stably operating STAT3 promoter; endogenous in cells
assay name: STAT3 reporter gene assay (luciferase), LNCaP stable cell line (pSTAT3-TA-luc), IL-6 stimulation
Assay type: cell-based
experimental readout: IC50 (µM)
Respond numerically; units are µM and should not be typed.

Observe how each entry below is paired with its result.
Cn1cccc1-c1cc(Cl)cc(NC(=O)c2cc3cc(NS(C)(=O)=O)ccc3s2)c1 0.096
CC(C)Oc1cc(OC(F)(F)F)cc(C(C)(C)c2cc(Cl)cc(NC(=O)c3cc4cc(OP(=O)(O)O)ccc4s3)c2)c1 0.38
CS(=O)(=O)Nc1ccc2cc(C(=O)Nc3cc(C#N)cc(-c4ccc(F)cc4F)c3)[nH]c2c1 3.3

I would be grateful if you could share the reported IC50 for CS(=O)(=O)Nc1ccc2cc(C(=O)Nc3cc(Br)cc(-c4ccc(F)cc4F)c3)[nH]c2c1 .
0.4

----------
Tested on: HEL92.1.7
assay name: Cell growth inhibition assay, blood cancer cell line HEL92.1.7
Format: cell-based
test parameters: Homo sapiens, HEL 92.1.7, HEL92.1.7 blood cancer cell line
Listing of entries alongside the reported IC50.
Could you give me the number in µM? Just the number is fine.

Worked cases, answers included:
molecule	measurement target	IC50 [µM]
CCS(=O)(=O)Nc1ccc2sc(C(=O)Nc3cc(Cl)cc(C(C)(C)c4cc(OC(C)C)cc(OC(F)(F)F)c4)c3)cc2c1 [Example 202]	HEL92.1.7	0.013
CC(C)Oc1cc(OC(F)(F)F)cc(C(C)(C)c2cc(Cl)cc(NC(=O)c3cc4cc(NS(=O)(=O)CCN5CCOCC5)ccc4s3)c2)c1 [Example 209]	HEL92.1.7	0.099
CCOc1cc(OC(F)(F)F)cc(C(C)(C)c2cc(Br)cc(NC(=O)c3cc4cc(NS(C)(=O)=O)ncc4s3)c2)c1 [Example 61]	HEL92.1.7	0.14

Query (molecule): CC(C)(c1cc(Cl)cc(NC(=O)c2cc3cc(NS(C)(=O)=O)ccc3s2)c1)c1cc(OCC#N)cc(OC(F)(F)F)c1 [Example 77] ; field requested: IC50
0.068

Try this molecule next: CC(C)Oc1cc(OC(F)(F)F)cc(C(C)(C)c2cc(Cl)cc(NC(=O)c3cc4cc(NS(=O)(=O)CC5CCOC5)ccc4s3)c2)c1 (stereo not drawn) [Example 196]
0.12

Values from patent US10562912B2
